- Test system: Spleen
- assay.protocol: Biodistribution in ICR mouse spleen at 5 to 10 uCi, iv after 30 mins
- Assay type: ADME, organism-based
- run.conditions: in vivo, 0.5 h
A collection of compounds and their measured Drug uptake
Kindly provide the numeric value in % ID/g only, without the unit symbol.

Study these solved cases before continuing.
molecule.smiles	Drug uptake [% ID/g]
CN(C)c1ccc(C#Cc2ccc(OCCOCC[18F])cc2)cc1	2.94
CNc1ccc(C#Cc2ccc(OCCOCCOCC[18F])cc2)cc1	1.22
CN(C)c1ccc(C#Cc2ccc(OCCOCCOCC[18F])cc2)cc1	1.39

Now consider a different compound.
Drug uptake of CNc1ccc(C#Cc2ccc(OCCOCC[18F])cc2)cc1 on Spleen? 3.6

---

- Tested on: Kidney
- assay.protocol: Biodistribution in ICR mouse kidney at 5 to 10 uCi, iv after 2 hrs
- Format: ADME, organism-based
- run.conditions: in vivo
property.name: Drug uptake (% ID/g)
Kindly provide the numeric value in % ID/g only, without the unit symbol.

Study these solved cases before continuing.
molecule.smiles	Drug uptake [% ID/g]
CN(C)c1ccc(C#Cc2ccc(OCCOCC[18F])cc2)cc1	4.16
CN(C)c1ccc(C#Cc2ccc(OCCOCCOCC[18F])cc2)cc1	2.02
CNc1ccc(C#Cc2ccc(OCCOCCOCC[18F])cc2)cc1	1.8

Drug uptake of CNc1ccc(C#Cc2ccc(OCCOCC[18F])cc2)cc1 on Kidney? 5.55

---

- Tested on: Zone of skin
- assay.protocol: Biodistribution in ICR mouse skin at 5 to 10 uCi, iv after 1 hr
- Type: ADME, organism-based
- run.conditions: in vivo
property.name: Drug uptake (% ID/g)
Kindly provide the numeric value in % ID/g only, without the unit symbol.

Study these solved cases before continuing.
molecule.smiles	output.unit	observed.result
CNc1ccc(C#Cc2ccc(OCCOCC[18F])cc2)cc1	% ID/g	2.55
CN(C)c1ccc(C#Cc2ccc(OCCOCCOCC[18F])cc2)cc1	% ID/g	1.28
CN(C)c1ccc(C#Cc2ccc(OCCOCC[18F])cc2)cc1	% ID/g	1.71

Now consider a different compound.
Given the entry CNc1ccc(C#Cc2ccc(OCCOCCOCC[18F])cc2)cc1 , report its measured Drug uptake. 0.95

---

- Tested on: Muscle tissue
- assay.protocol: Biodistribution in ICR mouse muscle at 5 to 10 uCi, iv after 2 mins
- Type: ADME, organism-based
- run.conditions: in vivo
property.name: Drug uptake (% ID/g)
Kindly provide the numeric value in % ID/g only, without the unit symbol.

Study these solved cases before continuing.
molecule.smiles	Drug uptake (% ID/g)
CN(C)c1ccc(C#Cc2ccc(OCCOCCOCC[18F])cc2)cc1	0.79
CN(C)c1ccc(C#Cc2ccc(OCCOCC[18F])cc2)cc1	0.91
CNc1ccc(C#Cc2ccc(OCCOCCOCC[18F])cc2)cc1	1.97

Drug uptake of CNc1ccc(C#Cc2ccc(OCCOCC[18F])cc2)cc1 on Muscle tissue? 0.79

---

- Tested on: Blood
- assay.protocol: Biodistribution in ICR mouse blood at 5 to 10 uCi, iv after 30 mins
- Assay type: ADME, organism-based
- run.conditions: in vivo, 0.5 h
property.name: Drug uptake (% ID/g)
Kindly provide the numeric value in % ID/g only, without the unit symbol.

Study these solved cases before continuing.
molecule.smiles	Drug uptake (% ID/g)
CNc1ccc(C#Cc2ccc(OCCOCC[18F])cc2)cc1	7.9
CNc1ccc(C#Cc2ccc(OCCOCCOCC[18F])cc2)cc1	3.28
CN(C)c1ccc(C#Cc2ccc(OCCOCCOCC[18F])cc2)cc1	2.97

Now consider a different compound.
Drug uptake of CN(C)c1ccc(C#Cc2ccc(OCCOCC[18F])cc2)cc1 on Blood? 6.13

# credit: ChEMBL document CHEMBL1139874
